# details: in ethyl acetate, 323.15 K
outcome.measure: solubility (mole fraction)

(A) O=C1OC(=O)c2c(Cl)cccc21
(B) O=C1OC(=O)c2cc(Cl)ccc21
Identify the entry with the smaller solubility (mole fraction): A or B . // return label of chosen record
A
(A: 0.265, B: 0.437)

---

# details: in water, 318.15 K
outcome.measure: solubility (mole fraction)

(A) O=C(O)c1ccc(Cl)cc1C(=O)O
(B) O=C(O)c1cccc(Cl)c1C(=O)O
Which value of solubility (mole fraction) is smaller, the one for A or the one for B ? To answer, give the label that identifies your chosen option.
B

---

# details: in water, 308.15 K
outcome.measure: solubility (mole fraction)

(1) O=C(O)c1cccc(Cl)c1C(=O)O
(2) O=C(O)c1ccc(Cl)cc1C(=O)O
In the pair 1 and 2 , the larger recorded solubility (mole fraction) belongs to which? State the label of the item chosen.
2
(2: 0.169, 1: 0.00346)
